assay: Cytotoxicity against human LN229 cells assessed as cell death after 18 hrs; format: functional, cell-based; details: LN-229, 18 h
# note: boundary value 2 µM maps to rule not met; EC50 below it maps to rule met

Q) A record lists CCc1ccc(C(C)(C)c2cc(O)c3c(c2)OC(C)(C)[C@@H]2CC=C(C)C[C@@H]32)cc1 . Is its EC50 below 2 µM?
A) rule met

Q) A record lists CC1=CC[C@@H]2[C@@H](C1)c1c(O)cc(C(C)(C)c3ccc(Cl)cc3)cc1OC2(C)C . Is its EC50 below 2 µM?
A) rule not met

Q) A record lists CC1=CC[C@@H]2[C@@H](C1)c1c(O)cc(C(C)(C)c3ccccc3)cc1OC2(C)C . Is its EC50 below 2 µM?
A) rule not met

Q) A record lists CCCc1ccc(C(C)(C)c2cc(O)c3c(c2)OC(C)(C)[C@@H]2CC=C(C)C[C@@H]32)cc1 . Is its EC50 below 2 µM?
A) rule not met

---

system: T98G; assay: Cytotoxicity against human T98G cells assessed as cell death after 18 hrs; assay type: functional, cell-based
Value kind: pEC50
pEC50 (log units): -log10 of the concentration in mol/L.

The cases that follow already have their pEC50 on record.
>  <Mol smiles>
CC1=CC[C@@H]2[C@@H](C1)c1c(O)cc(C(C)(C)c3ccccc3)cc1OC2(C)C

>  <pEC50>
5.33

$$$$
>  <Mol smiles>
CC1=CC[C@@H]2[C@@H](C1)c1c(O)cc(C(C)(C)c3ccc(Cl)cc3)cc1OC2(C)C

>  <pEC50>
5.47

$$$$
>  <Mol smiles>
CCCc1ccc(C(C)(C)c2cc(O)c3c(c2)OC(C)(C)[C@@H]2CC=C(C)C[C@@H]32)cc1

>  <pEC50>
5.44

$$$$

Q) Could you share which pEC50 value was measured for CCc1ccc(C(C)(C)c2cc(O)c3c(c2)OC(C)(C)[C@@H]2CC=C(C)C[C@@H]32)cc1 ?
A) 5.49

Q) Could you share which pEC50 value was measured for CC1=CC[C@@H]2[C@@H](C1)c1c(O)cc(C(C)(C)c3ccc(F)cc3)cc1OC2(C)C ?
A) 5.48

Q) Could you share which pEC50 value was measured for CC1=CC[C@@H]2[C@@H](C1)c1c(O)cc(C(C)(C)c3cccs3)cc1OC2(C)C ?
A) 5.66

---

organism: Homo sapiens; experiment: Selectivity ratio of Ki for human CB1 receptor to Ki for human CB2 receptor
Value kind: Ratio Ki

>  <Mol smiles>
CC1=CC[C@@H]2[C@@H](C1)c1c(O)cc(C(C)(C)c3cccc(Cl)c3)cc1OC2(C)C

>  <Value kind>
Ratio Ki

>  <Result>
0.79

$$$$
>  <Mol smiles>
CC1=CC[C@@H]2[C@@H](C1)c1c(O)cc(C(C)(C)c3cccc(Br)c3)cc1OC2(C)C

>  <Value kind>
Ratio Ki

>  <Result>
2.94

$$$$
>  <Mol smiles>
CC1=CC[C@@H]2[C@@H](C1)c1c(O)cc(C(C)(C)c3cccc(C)c3)cc1OC2(C)C

>  <Value kind>
Ratio Ki

>  <Result>
2.24

$$$$

Q) Could you share which Ratio Ki value was measured for CC1=CC[C@@H]2[C@@H](C1)c1c(O)cc(C(C)(C)c3cccc(C#N)c3)cc1OC2(C)C ?
A) 2.98

Q) Could you share which Ratio Ki value was measured for CC1=CC[C@@H]2[C@@H](C1)c1c(O)cc(C(C)(C)c3ccccc3)cc1OC2(C)C ?
A) 13.5

Q) Could you share which Ratio Ki value was measured for CC1=CC[C@@H]2[C@@H](C1)c1c(O)cc(C(C)(C)c3cc(C)cc(C)c3)cc1OC2(C)C ?
A) 1.48
